Biological target: T1, recombinant biotinylated CD71 extracellular domain (Sino Biologics) with an N-terminal 6His tag (human, UniProt P02786 89-760, biotinylated (sites not given))
T1 construct: extracellular domain; also called hCD71; huCD71
T1 sequence (P02786 other isoform, or with tags, fused parts or gaps): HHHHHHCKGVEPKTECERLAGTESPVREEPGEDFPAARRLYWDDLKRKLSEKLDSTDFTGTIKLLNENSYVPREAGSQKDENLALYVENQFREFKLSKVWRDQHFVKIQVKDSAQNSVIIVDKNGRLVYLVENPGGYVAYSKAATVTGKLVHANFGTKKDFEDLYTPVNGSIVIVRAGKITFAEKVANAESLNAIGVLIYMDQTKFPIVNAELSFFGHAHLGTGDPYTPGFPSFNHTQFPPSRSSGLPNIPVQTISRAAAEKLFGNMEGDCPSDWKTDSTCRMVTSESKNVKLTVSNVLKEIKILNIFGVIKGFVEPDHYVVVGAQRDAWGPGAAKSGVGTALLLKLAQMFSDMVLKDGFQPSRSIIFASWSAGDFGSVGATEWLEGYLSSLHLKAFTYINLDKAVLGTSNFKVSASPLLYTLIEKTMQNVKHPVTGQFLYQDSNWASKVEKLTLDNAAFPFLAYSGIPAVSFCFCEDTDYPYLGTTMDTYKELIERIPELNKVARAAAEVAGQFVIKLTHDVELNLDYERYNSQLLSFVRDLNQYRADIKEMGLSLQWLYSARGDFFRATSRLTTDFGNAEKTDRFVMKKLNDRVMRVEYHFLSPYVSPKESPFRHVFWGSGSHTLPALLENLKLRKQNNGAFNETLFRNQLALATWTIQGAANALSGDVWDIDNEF
Assay: screening ELISA
MEASURED_PROPERTY: hCD71
Hey, just send me the number, nothing else.

Some binders with known hCD71 results, for comparison:
- BINDER: "SEQ ID NO 236 (designed binder, FN3 domain) MLPAPKNLVVSRVTEDSARLSWTAPDAAFDSFWIEYYEELGSGEAIVLTVPGSERSYDLTGLKPGTEYRVYIYGVKGGYPSSPLSAIFTT"
  REPORTED_RESULT: "3.44e+06"
- BINDER: "SEQ ID NO 153 (designed binder, FN3 domain) MLPAPKNLVVSRVTEDSARLSWTAPDAALDSFRIAYTEYFVGGEAIVLTVPGSERSYDLTGLKPGTEYGVGIYGVKGGAGSSPLSAIFTT"
  REPORTED_RESULT: 957000
- BINDER: "SEQ ID NO 305 (designed binder, FN3 domain) MLPAPKNLVVSRVTEDSARLSWTAPDAAFDSFEIDYDEPFVYGEAIVLTVPGSERSYDLTGLKPGTEYRVFIFGVKGGNGSWPLSAIFTT"
  REPORTED_RESULT: "1.21e+06"
- BINDER: "SEQ ID NO 206 (designed binder, FN3 domain) MLPAPKNLVVSRVTEDSARLSWTAPDAAFDSFDIEYDELWKNGEAIVLTVPGSERSYDLTGLKPGTEYRVFIYGVKGGYGSFPLSAIFTT"
  REPORTED_RESULT: 833000
- BINDER: "SEQ ID NO 245 (designed binder, FN3 domain) MLPAPKNLVVSRITEDSARLSWTAPDAAFDSFGIAYNEGDHYGEAIVLTVPGSERSYDLTGLKPGTEYSVWIEGVKGGNLSYPLSAIFTT"
  REPORTED_RESULT: "2.62e+06"

Query :: Tell me the measured hCD71 of SEQ ID NO 149 (designed binder, FN3 domain) MLPAPKNLVVSRVTEDSARLSWTAPDAAFDSFIIPYAEVRPDGEAIVLTVPGSERSYDLTGLKPGTEYSVLIHGVKGGKLSEPLSAIFTT , please.
Result :: 2.77e+06

Query :: Tell me the measured hCD71 of SEQ ID NO 277 (designed binder, FN3 domain) MLPAPKNLVVSRVTEDSARLSWTAPDAAFDSFWINYYEGIGEGEAIVLTVPGSERSYDLTGLKPGTEYYVDISGVKGGSYSLPLSAIFTT , please.
Result :: 3.11e+06

Query :: Tell me the measured hCD71 of SEQ ID NO 271 (designed binder, FN3 domain) MLPAPKNLVVSRVTEDSARLSWTAPDAAFDSFYIPYAETRDDGEAIVLTVPGSERSYDLTGLKPGTEYSVLIHGVKGGDLSSPLSAIFTT , please.
Result :: 2.11e+06

Query :: Tell me the measured hCD71 of SEQ ID NO 95 (designed binder, FN3 domain) MLPAPKNLVVSRVTEDSARLSWTAPDAAFDSFRISYYEWYDLGEAIVLTVPGSERSYDLTGLKPGTEYWVDIAGVKGGYYSYPLSAIFTT , please.
Result :: 4.21e+06
